Entry source: patent US4767621A

Assay: Acute toxicity of monensin, single intra-peritoneal administration (own experiments)
Format: in vivo, mouse
Conditions: mouse, in vivo, ip; single administration intra-peritoneally; read-out: 50% lethal dose, per body weight
Endpoint: LD50 (mg/kg)
State the answer as a number, implicitly in mg/kg.

Data request, read-out LD50, for CC[C@@]1([C@@H]2O[C@@H]([C@H]3O[C@@](O)(CO)[C@H](C)C[C@@H]3C)C[C@@H]2C)CC[C@H]([C@]2(C)CC[C@]3(C[C@H](O)[C@@H](C)[C@@H]([C@@H](C)[C@@H](OC)[C@H](C)C(=O)O)O3)O2)O1
17
